Target: Receptor tyrosine-protein kinase erbB-4 (Homo sapiens)
Details: at 1 µM
property.measured: residual activity

>>> result("CCOc1cc2ncnc(Nc3cccc(Br)c3)c2cc1OCC")
"10%"
>>> result("N#C/C(=C(\\N)Sc1ccc(N)cc1)c1ccccc1C(F)(F)F")
"96%"
>>> result("Cc1cc2ncc(-c3ccccc3)nc2cc1C")
"99%"
>>> result("O=C1Nc2ccccc2/C1=C1/Nc2ccccc2/C1=N\\OCCC(O)CO (stereo not drawn)")
"107%"
>>> result("COc1ccc(OC)c2c(=S)c3ccccc3[nH]c12")
"80%"
>>> result("Cc1ccc(NC2=CC(=O)c3sc(C)nc3C2=O)cc1")
"77%"
>>> result("CC(=O)c1ccc(N2CCOCC2)cc1O")
"93%"
>>> result("c1ccc(-c2n[nH]c3c2oc2ccccc23)cc1")
"90%"

---

Listing of recorded residual activity by entry.
Biological target: cGMP-dependent protein kinase 1 (Homo sapiens) (UniProt Q13976)
Sequence (Q13976 whole entry): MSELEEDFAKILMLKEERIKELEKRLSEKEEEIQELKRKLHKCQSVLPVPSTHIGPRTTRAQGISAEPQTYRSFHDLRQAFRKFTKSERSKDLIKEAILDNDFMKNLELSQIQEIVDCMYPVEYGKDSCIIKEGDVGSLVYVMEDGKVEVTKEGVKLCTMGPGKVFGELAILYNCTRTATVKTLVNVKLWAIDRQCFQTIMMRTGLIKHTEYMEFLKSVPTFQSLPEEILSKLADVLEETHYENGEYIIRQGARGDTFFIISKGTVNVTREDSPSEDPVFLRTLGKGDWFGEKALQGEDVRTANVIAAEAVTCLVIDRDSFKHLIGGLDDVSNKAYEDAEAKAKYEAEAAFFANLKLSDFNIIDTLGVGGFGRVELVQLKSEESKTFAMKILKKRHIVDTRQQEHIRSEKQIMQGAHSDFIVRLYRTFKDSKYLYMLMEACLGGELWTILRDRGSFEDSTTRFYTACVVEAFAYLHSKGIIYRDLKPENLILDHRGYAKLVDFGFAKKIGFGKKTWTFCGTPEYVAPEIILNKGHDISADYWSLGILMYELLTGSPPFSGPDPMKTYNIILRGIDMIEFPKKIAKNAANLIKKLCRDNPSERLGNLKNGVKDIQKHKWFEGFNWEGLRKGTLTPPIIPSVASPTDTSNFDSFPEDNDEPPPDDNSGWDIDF
Settings: at 10 µM
property.measured: residual activity (%)

>>> recorded_number("Oc1ccc(-c2nc(-c3ccc(F)cc3)c(-c3ccncc3)[nH]2)cc1")
66
>>> recorded_number("Oc1c2ccccc2c2c3c(cccc13)N=N2")
79
>>> recorded_number("COc1cc2ncnc(Nc3ccc(O)c(Br)c3)c2cc1OC")
76
>>> recorded_number("Cc1ccc(NC2=CC(=O)c3sc(C)nc3C2=O)cc1")
95
>>> recorded_number("O=C(O)c1ccc2c3c1cccc3c(=O)n1c3ccccc3nc21")
97
>>> recorded_number("CN(C)c1ccc(/C=C2\\C(=O)Nc3ccccc32)cc1")
115
>>> recorded_number("CC#CC(=O)Nc1cc2c(Nc3ccc(F)c(Cl)c3)ncnc2cn1")
102
>>> recorded_number("O=C1NC(=O)/C(=C/c2ccc3c(c2)OC(F)(F)O3)S1")
108
>>> recorded_number("Nc1n[nH]c2nnc(-c3c(-c4ccccc4)nn4ccccc34)cc12")
104
>>> recorded_number("Cc1cc(Nc2nc(-c3ccccc3)nc3ccccc23)n[nH]1")
39
>>> recorded_number("COc1ccc(S(=O)(=O)N(CCO)c2ccccc2CN(C)C/C=C/c2ccc(Cl)cc2)cc1")
99

---

Biological target: Dual specificity mitogen-activated protein kinase kinase 7 (Homo sapiens)
Conditions: at 1 µM
property.measured: residual activity (%)

>>> recorded_number("O=C1NC(=O)/C(=C/c2ccc3c(c2)OC(F)(F)O3)S1")
96
>>> recorded_number("CN(C)c1ccc(/C=C2\\C(=O)Nc3ccccc32)cc1")
91
>>> recorded_number("CO[C@H]1C[C@@H]2CC[C@@H](C)[C@@](O)(O2)C(=O)C(=O)N2CCCC[C@H]2C(=O)O[C@H]([C@H](C)C[C@@H]2CC[C@@H](O)[C@H](OC)C2)CC(=O)[C@H](C)/C=C(\\C)[C@@H](O)[C@@H](OC)C(=O)[C@H](C)C[C@H](C)/C=C/C=C/C=C/1C")
102
>>> recorded_number("O=[N+]([O-])c1ccc(-c2nc(-c3ccc(F)cc3)c(-c3ccncc3)[nH]2)cc1")
101
>>> recorded_number("Ic1cccc(CSc2nnc(-c3ccncc3)o2)c1")
70
>>> recorded_number("COc1cc2ncnc(Nc3ccc(O)c(Br)c3)c2cc1OC")
119
>>> recorded_number("Cn1cc(/C=C2\\C(=O)Nc3ccc(S(N)(=O)=O)cc32)c2ccccc21")
89
>>> recorded_number("Cc1cc(Nc2nc(-c3ccccc3)nc3ccccc23)n[nH]1")
72
>>> recorded_number("CC(C)n1cnc2c(NCc3ccccc3)nc(NCCCO)nc21")
91
